Assay: APR_HepG2_MitoMembPot_1hr: Apredica 1-hour HepG2 Assay for Mitochondrial Membrane Potential (AID 2282675)
Settings: imaging, actives raise or lower the signal
The source made the active and inactive calls. How the source made its calls: active means hit-call score of the fitted dose curve at least 0.9, where 1 is the maximum; inactive means score below 0.9.
Lab note: assign the record to one of yes (1) for active, no (0) for inactive

Exercise: Please let me know the test result on file for N#CC(CCc1ccc(Cl)cc1)(Cn1cncn1)c1ccccc1 (stereo not given) .
Solution: no (0)

Exercise: Please let me know the test result on file for CC(C)C1(C)N=C(c2nc3ccccc3cc2C(=O)O)NC1=O (stereo not given) .
Solution: no (0)

Exercise: Please let me know the test result on file for `CNC(=S)S` .
Solution: no (0)

Exercise: Please let me know the test result on file for C#CCOS(=O)OC1CCCCC1Oc1ccc(C(C)(C)C)cc1 (stereo not given) .
Solution: yes (1)

Exercise: Please let me know the test result on file for `COc1cnc(OC)n2nc(NS(=O)(=O)c3c(OCC(F)F)cccc3C(F)(F)F)nc12` .
Solution: no (0)

Exercise: Please let me know the test result on file for `CN(C)C(=S)SSC(=S)N(C)C` .
Solution: no (0)

Exercise: Please let me know the test result on file for `CCNc1nc(Cl)nc(NC(C)C)n1` .
Solution: no (0)

Exercise: Please let me know the test result on file for CCOC(=O)CC(SP(=S)(OC)OC)C(=O)OCC (stereo not given) .
Solution: no (0)

Exercise: Please let me know the test result on file for `CCc1nn(C)c(C(=O)NCc2ccc(C(C)(C)C)cc2)c1Cl` .
Solution: no (0)

Exercise: Please let me know the test result on file for `Oc1ccccc1-c1ccccc1` .
Solution: no (0)

Exercise: Please let me know the test result on file for `Fc1ccc(Oc2ccnc3cc(Cl)cc(Cl)c23)cc1` .
Solution: no (0)

Exercise: Please let me know the test result on file for CC(Oc1ccc(Cl)cc1Cl)C(=O)O (stereo not given) .
Solution: no (0)

Exercise: Please let me know the test result on file for `CC(C)(C)c1ccc(CSc2cnn(C(C)(C)C)c(=O)c2Cl)cc1` .
Solution: no (0)

Exercise: Please let me know the test result on file for `CON(C)C(=O)Nc1ccc(Cl)c(Cl)c1` .
Solution: no (0)

Exercise: Please let me know the test result on file for CCCCC(CC)COC(=O)c1ccccc1C(=O)OCC(CC)CCCC (stereo not given) .
Solution: no (0)

====

Target: Peroxisome proliferator-activated receptor gamma (Homo sapiens)
Experiment: ATG_hPPARg_XSP2: Attagene TRANS-FACTORIAL Multi-Species (XSP2) HepG2 Assay for human Peroxisome Proliferator-activated Receptor gamma (PPARg) (AID 2283829);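 further: actives raise reporter mRNA above DMSO so AC50 reflects PPARg activation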
Records with an inconclusive call do not appear. The source made the active and inactive calls. How the source made its calls: active means hit-call score of the fitted dose curve at least 0.9, where 1 is the maximum; inconclusive means response in the unintended direction; inactive means score below 0.9.
Lab note: assign the record to one of active, inactive

Exercise: Please let me know the test result on file for OC(c1ccc(Cl)cc1)(c1cncnc1)c1ccccc1Cl (stereo not drawn) .
Solution: active

Exercise: Please let me know the test result on file for `COP(=S)(OC)Oc1nc(Cl)c(Cl)cc1Cl` .
Solution: active

Exercise: Please let me know the test result on file for `CO/C=C(/C(=O)OC)c1ccccc1Oc1cc(Oc2ccccc2C#N)ncn1` .
Solution: inactive

Exercise: Please let me know the test result on file for `CCCN(CCC)c1c([N+](=O)[O-])cc(S(N)(=O)=O)cc1[N+](=O)[O-]` .
Solution: inactive

Exercise: Please let me know the test result on file for `CC(C)(C)c1ccc(CSc2cnn(C(C)(C)C)c(=O)c2Cl)cc1` .
Solution: active

Exercise: Please let me know the test result on file for `CCOP(=S)(OCC)SCn1c(=O)oc2cc(Cl)ccc21` .
Solution: active

Exercise: Please let me know the test result on file for C#CCOS(=O)OC1CCCCC1Oc1ccc(C(C)(C)C)cc1 (stereo not drawn) .
Solution: active

Exercise: Please let me know the test result on file for C=CC1(C)OC(=O)N(c2cc(Cl)cc(Cl)c2)C1=O (stereo not drawn) .
Solution: active

====

Molecular target: sheep Cyclooxygenase-1 (Cox1), PTGS1 (gene 443551) (UniProt P05979)
Sequence (P05979 whole entry, looked up): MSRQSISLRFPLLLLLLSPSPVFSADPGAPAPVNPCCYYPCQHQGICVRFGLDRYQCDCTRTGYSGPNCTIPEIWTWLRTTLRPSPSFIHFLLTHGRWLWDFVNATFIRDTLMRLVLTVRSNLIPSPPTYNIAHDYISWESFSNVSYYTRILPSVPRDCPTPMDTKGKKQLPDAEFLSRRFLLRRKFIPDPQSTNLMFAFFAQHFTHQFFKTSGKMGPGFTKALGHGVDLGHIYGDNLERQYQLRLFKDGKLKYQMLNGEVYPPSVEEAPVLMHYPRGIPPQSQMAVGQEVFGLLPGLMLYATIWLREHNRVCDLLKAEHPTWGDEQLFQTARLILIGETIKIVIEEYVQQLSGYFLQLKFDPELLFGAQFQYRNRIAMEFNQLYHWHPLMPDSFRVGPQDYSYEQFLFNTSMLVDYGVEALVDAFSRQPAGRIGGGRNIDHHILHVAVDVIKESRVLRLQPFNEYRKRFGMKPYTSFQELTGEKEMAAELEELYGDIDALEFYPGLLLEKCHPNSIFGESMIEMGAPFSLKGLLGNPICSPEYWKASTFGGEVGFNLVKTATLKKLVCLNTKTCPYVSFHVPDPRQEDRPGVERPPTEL
Assay: NVS_ENZ_oCOX1: NovaScreen (NVS) Enzymatic Assay for sheep Cyclooxygenase-1 (Cox1) (AID 2283239);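 further: actives reduce cyclooxygenase activity so potencies are for inhibitors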
Results filed as inconclusive are left out. Active and inactive are the calls of the source. Rule for the calls: active = hit-call score of the fitted dose curve at least 0.9, where 1 is the maximum; inconclusive = response in the unintended direction; inactive = score below 0.9.
Lab note: assign the record to one of T (active), F (inactive)

Exercise: Please let me know the test result on file for `Oc1ccccc1-c1ccccc1` .
Solution: T

Exercise: Please let me know the test result on file for `CCCCOC(=O)c1ccccc1C(=O)OCCCC` .
Solution: F

Exercise: Please let me know the test result on file for `CON(C)C(=O)Nc1ccc(Cl)c(Cl)c1` .
Solution: F

Exercise: Please let me know the test result on file for `CO/C=C(/C(=O)OC)c1ccccc1Oc1cc(Oc2ccccc2C#N)ncn1` .
Solution: F

====

Read-out: xenobiotic metabolism (CYP1A2), CYP1A2 (gene 1544)
Test: CLD_CYP1A2_48hr: CellzDirect (CLD) Gene Expression Assay for xenobiotic metabolism (CYP1A2) at 48 hours (AID 2283703)
Results filed as inconclusive are left out. Calls of active or inactive are those of the source. How the source made its calls: active means hit-call score of the fitted dose curve at least 0.9, where 1 is the maximum; inconclusive means response in the unintended direction; inactive means score below 0.9.
Lab note: assign the record to one of active, inactive

Exercise: Please let me know the test result on file for CCCCC(CC)COC(=O)c1ccccc1C(=O)OCC(CC)CCCC (stereo unspecified) .
Solution: inactive

Exercise: Please let me know the test result on file for N#CC(CCc1ccc(Cl)cc1)(Cn1cncn1)c1ccccc1 (stereo unspecified) .
Solution: active

Exercise: Please let me know the test result on file for `CCCN(CCC)c1c([N+](=O)[O-])cc(S(N)(=O)=O)cc1[N+](=O)[O-]` .
Solution: inactive

Exercise: Please let me know the test result on file for `O=C(O)COc1nc(Cl)c(Cl)cc1Cl` .
Solution: inactive

Exercise: Please let me know the test result on file for CC1COC(Cn2cncn2)(c2ccc(Oc3ccc(Cl)cc3)cc2Cl)O1 (stereo unspecified) .
Solution: active

Exercise: Please let me know the test result on file for `O=C(O)c1nc(Cl)ccc1Cl` .
Solution: active

Exercise: Please let me know the test result on file for `COC(=O)N(OC)c1ccccc1COc1ccn(-c2ccc(Cl)cc2)n1` .
Solution: active

Exercise: Please let me know the test result on file for CCON=C(CC)C1=C(O)CC(c2c(C)cc(C)cc2C)CC1=O (stereo unspecified) .
Solution: inactive

Exercise: Please let me know the test result on file for `O=C(Nc1ccccc1)Nc1ccnc(Cl)c1` .
Solution: active

Exercise: Please let me know the test result on file for `CCCCNC(=O)n1c(NC(=O)OC)nc2ccccc21` .
Solution: active

Exercise: Please let me know the test result on file for `CC1=C(C(=O)Nc2ccccc2)SCCO1` .
Solution: active

Exercise: Please let me know the test result on file for CCOC(=O)CC(SP(=S)(OC)OC)C(=O)OCC (stereo unspecified) .
Solution: active

Exercise: Please let me know the test result on file for Cc1c(F)c(F)c(COC(=O)C2C(/C=C(\Cl)C(F)(F)F)C2(C)C)c(F)c1F (stereo unspecified) .
Solution: active

Exercise: Please let me know the test result on file for `Cc1ccc(-c2c(Cl)nc(C#N)n2S(=O)(=O)N(C)C)cc1` .
Solution: inactive

Exercise: Please let me know the test result on file for `CCCCNC(=O)OCC#CI` .
Solution: inactive

Exercise: Please let me know the test result on file for C#CCOS(=O)OC1CCCCC1Oc1ccc(C(C)(C)C)cc1 (stereo unspecified) .
Solution: active

Exercise: Please let me know the test result on file for C=CC1(C)OC(=O)N(c2cc(Cl)cc(Cl)c2)C1=O (stereo unspecified) .
Solution: active

Exercise: Please let me know the test result on file for `CCOc1cc(Oc2ccc(C(F)(F)F)cc2Cl)ccc1[N+](=O)[O-]` .
Solution: active

Exercise: Please let me know the test result on file for `COc1nc(NC(C)C)nc(NC(C)C)n1` .
Solution: active

Exercise: Please let me know the test result on file for `CC(C)Oc1cc(-n2nc(C(C)(C)C)oc2=O)c(Cl)cc1Cl` .
Solution: active

Exercise: Please let me know the test result on file for `CS/C(C)=N/OC(=O)N(C)SN(C)C(=O)O/N=C(\C)SC` .
Solution: inactive

Exercise: Please let me know the test result on file for `COc1nc(C)nc(NC(=O)NS(=O)(=O)c2ccccc2Cl)n1` .
Solution: inactive

Exercise: Please let me know the test result on file for CC(Oc1ccc(Cl)cc1Cl)C(=O)O (stereo unspecified) .
Solution: inactive

Exercise: Please let me know the test result on file for `Oc1ccccc1-c1ccccc1` .
Solution: active

Exercise: Please let me know the test result on file for `COc1ccc(C(c2ccc(OC)cc2)C(Cl)(Cl)Cl)cc1` .
Solution: active

Exercise: Please let me know the test result on file for `Fc1ccc(Oc2ccnc3cc(Cl)cc(Cl)c23)cc1` .
Solution: active
